FYI, the data here is from patent US20240043504A1.

# system: SARS-COV-2 RBD extracellular domain expressed with a C-terminal mouse IgG2a (SARS-CoV-2)
# experiment description: SPR Biacore, mAb captured via anti-hFc, 25 C
# koff per entry
readout name: koff (s⁻¹)

INSERT INTO results (binder, unit_of_measurement, numeric_result) VALUES
  ('mAb10913 (antibody, V domains shown) VH: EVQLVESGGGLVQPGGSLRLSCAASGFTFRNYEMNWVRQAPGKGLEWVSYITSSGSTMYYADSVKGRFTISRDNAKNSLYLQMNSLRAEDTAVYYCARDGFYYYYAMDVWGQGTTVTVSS VL: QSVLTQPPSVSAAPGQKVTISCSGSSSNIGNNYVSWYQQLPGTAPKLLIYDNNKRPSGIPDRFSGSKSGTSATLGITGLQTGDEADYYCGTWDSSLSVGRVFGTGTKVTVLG', 's⁻¹', 0.000277),
  ('mAb11004 (antibody, V domains shown) VH: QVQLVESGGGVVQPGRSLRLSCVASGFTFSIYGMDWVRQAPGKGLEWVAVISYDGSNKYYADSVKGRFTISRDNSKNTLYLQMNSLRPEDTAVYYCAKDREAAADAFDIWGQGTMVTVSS VL: DIQMTQSPSSVSASVGDRVTITCRASQGISSWLAWYQQKPGKAPKLLIYAASSLHSGVPSRFSGSGSGTDFTLTISSLQPEDFATYYCQQANSFRLTFGGGTKVEIKR', 's⁻¹', '6.4e-05'),
  ('mAb10971 (antibody, V domains shown) VH: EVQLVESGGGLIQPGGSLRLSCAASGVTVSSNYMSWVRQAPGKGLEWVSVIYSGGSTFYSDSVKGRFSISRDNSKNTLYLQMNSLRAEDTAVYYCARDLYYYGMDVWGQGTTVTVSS VL: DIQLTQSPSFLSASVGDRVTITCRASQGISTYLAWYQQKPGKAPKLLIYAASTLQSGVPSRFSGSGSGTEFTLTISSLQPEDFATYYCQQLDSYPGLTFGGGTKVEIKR', 's⁻¹', '4.09e-05');
